Source: patent US20260174875A1

molecular target: human GLP-1 receptor (human, UniProt P43220 24-463); assay: cell-based or functional assay
Numbered stars: 1 amine (or outer) side, 2 acyl side, 3 side chain; on linkers, the order of the positions; unused ones are H or OH. Square brackets hold non-standard residues; d marks the D form. Side chains are listed from the residue outwards. * marks the point of attachment. C18 diacid = O=C(O)CCCCCCCCCCCCCCCCC(=O)*; C16 diacid = O=C(O)CCCCCCCCCCCCCCC(=O)*; γGlu = O=C(O)[C@H](CCC(=O)[*:2])N[*:1]; Chem. 28 = not defined here; AEEA = NCCOCCOCC(=O)O; Aib = CC(C)(N)C(=O)O

Binder | hGLP-1R Potency, 1% HSA, EC50 [pM], pM
Compound 61 (peptide) peptide: H[Aib]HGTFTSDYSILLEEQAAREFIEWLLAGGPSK([AEEA-AEEA-γGlu-C16 diacid])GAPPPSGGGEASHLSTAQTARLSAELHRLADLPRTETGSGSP-NH2 | 14.7
Compound 88 (peptide) peptide: H[Aib]HGTFTSDYSILLEEQAAREFIEWLLAGGPSSGEASHLSTAALGRLSAELHK([AEEA-AEEA-γGlu-C18 diacid])LATLPRTETGSGSP-NH2 | 48.8
Compound 81 (peptide) peptide: Y[Aib]EGTFTSDYSILLEEQAAREFIEWLLAGGPSSGEASHLSTAQTQRLSAELHRLATLPK([AEEA-AEEA-γGlu-C18 diacid])TETGSGSP-NH2 | 51.4
Compound 49 (reading uncertain) peptide: Y[Aib]EGTFTSDYSILLEEQAAREFIEWLLAGGPSSGAPPPSGGGEASHLSTAQTQRLSAELHK(Chem. 28)LATLPRTETGSGSP-NH2 | 110
Compound 64 (peptide) peptide: H[Aib]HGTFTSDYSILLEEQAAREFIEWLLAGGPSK([AEEA-AEEA-γGlu-C18 diacid])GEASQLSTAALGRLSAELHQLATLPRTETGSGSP-NH2 | 67.8
Compound 67 (peptide) peptide: Y[Aib]EGTFTSDYSILLEEQAAREFIEWLLAGGPSRGEASELSTAALGRLSAELHK([AEEA-AEEA-γGlu-C18 diacid])LATLPRTETGSGSP-NH2 | 105
Compound 105 (reading uncertain) peptide: Y[Aib]EGTFTSDYSILLEEQAAREFIEWLLAGGPSSGALQAPGQAPLASHLSTAQTARLSAELHK(Chem. 28)LATLPRTETGSGSP-NH2 | 48.9
Compound 50 (reading uncertain) peptide: Y[Aib]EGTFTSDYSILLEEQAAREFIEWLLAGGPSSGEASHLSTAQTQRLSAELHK(Chem. 28)LATLPRTETGSGSP-NH2 | 66.3
